Quick reference for Ab IC50-Cyno PBMC (Trial 1), TNFα release induced by cyno PGLYRP1/PGN among some binders
- measured-on: T1, cyno TREM-1 (cynomolgus monkey, UniProt A0A2K5VHG8 21-233)
- T1 sequence: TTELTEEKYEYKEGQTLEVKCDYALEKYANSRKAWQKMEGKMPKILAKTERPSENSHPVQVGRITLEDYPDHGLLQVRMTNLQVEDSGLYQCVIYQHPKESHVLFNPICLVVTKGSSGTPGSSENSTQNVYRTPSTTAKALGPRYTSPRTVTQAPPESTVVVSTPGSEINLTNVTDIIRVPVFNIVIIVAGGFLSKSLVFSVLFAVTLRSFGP
- run-description: cell-based or functional assay
reported-endpoint: Ab IC50-Cyno PBMC (Trial 1), TNFα release induced by cyno PGLYRP1/PGN (nM)

| binder | reading-unit | reported-measurement |
| --- | --- | --- |
| 64D7 (antibody, V domains shown) VH: QVQLVQSGAEVKKPGASVKVSCKASGYTFTSYDINWVRQATGQGLEWMGWMNPNRGNTGYVKKFQGRVTMTRNTSISTAYMELSSLRSEDTAVYYCARRRAVYRSSWEWYFDLWGRGTLVTVSS VL: DTQMTQSPSSLSASEGDRVTITCQASQDIFNDLNWYQEKPGKAPKLLIYHASNLETGVPSRFSGSGSGTDYTFTISSLQPEDIATYYCQQYGNLPLTFGGGTKVEIK | nM | 6.94 |
| 66B8 (antibody, V domains shown) VH: QVQLVQSGAEVKKPGASVKVSCKASGYTFTGYYMHWVRQAPGQGLEWMGWFKPNSGVTNYAQKFQGRVTMSRDTSISTAYMELSSLRSDDTAVYYCARAGYSTSWKDWFDPWGQGTLVTVSS VL: DIQMTQFPSSVSASVGDRVTITCRASQGISRWLAWYQQKQGKAPKLLIYMVSSLQSGVPSRFSGSGSGTDFTLTISSLQPEDFATYYCQQSHNFPITFGQGTRLDIK | nM | 0.114 |
| 61B12 (antibody, V domains shown) VH: QVQLVQSGAEVTKPGASVKVSCKASGYTFTRYDINWVRQATGQGLEWMGWMNPNSGNSGSVQKFRGRVTMTRNTSITTVYMELSSLRSDDTAVYYCARGGISSSWHWAFDIWGQGTMVTVSS VL: DIQMTQSPSSLSASVGDRVTITCQASQDINNHLNWYQQKPGKAPKLLIYGAYTLETGVPSRFSGSGSGTDFTFTISSLQPEDIATYYCQQYDKLPLTFGGGTKVEIK | nM | 0.0469 |
